# test name: CLint (intrinsic clearance) assay, liver microsomal incubation
# Type: in vitro ADME, human
# test parameters: liver microsomes, pH 7.4; human hepatic microsomes, 0.5 mg/mL protein, class symbols
# Protocol: Also shown is the human hepatic microsomal intrinsic clearance (CLint), whereby the following classification is used: 2. CLint (Intrinsic Clearance) Assay A Tecan Genesis workstation (RWS ASY 150/8) was used to perform the microsomal incubations. Analysis was carried out using a Waters ACQUITY UPLC system coupled to an ABSciex API3000 mass spectrometer. […] The metabolic stability of each compound was determined by measurement of the change in LC-MS/MS peak area over time. […]
endpoint name: microsomal CLint at 0.8 μM

[[record]]
compound = "CC(C)n1cc(-c2ccc(-c3cnc(N)c(C(F)(F)F)c3N3CCC4(CC3)CNC(=O)O4)cc2)cn1"
observed = "10 to 50 µL/min/mg"

[[record]]
compound = "CCn1ncc2cc(-c3cnc(N)c(Cl)c3N3CCC4(CCNC4=O)CC3)ccc21"
observed = "100 to 150 µL/min/mg"

[[record]]
compound = "Cn1cc(-c2ccc(-c3cnc(N)c(C(F)(F)F)c3N3CCC4(CC3)CNC(=O)O4)cc2)cn1"
observed = "< 10 µL/min/mg"

[[record]]
compound = "CN1C(=O)Cc2cc(-c3cnc(N)c(Cl)c3N3CCC4(CCNC4=O)CC3)ccc21"
observed = "10 to 50 µL/min/mg"

[[record]]
compound = "CC(C)n1cc(-c2ccc(-c3cnc(N)c(Cl)c3N3CCC4(CC3)CNC(=O)O4)cc2)cn1"
observed = "10 to 50 µL/min/mg"

[[record]]
compound = "Cn1cc(-c2ccc(-c3cnc(N)c(F)c3N3CCC4(CC3)CNC(=O)O4)cc2)cn1"
observed = "10 to 50 µL/min/mg"


Request: For CN1C(=O)Cc2ccc(-c3cnc(N)c(C(F)(F)F)c3N3CCC4(CCNC4=O)CC3)cc21 , what is its reported microsomal CLint at 0.8 μM?
Response: 10 to 50 µL/min/mg

Request: For Cn1ncc2cc(-c3cnc(N)c(F)c3N3CCC4(CCNC4=O)CC3)ccc21 , what is its reported microsomal CLint at 0.8 μM?
Response: 10 to 50 µL/min/mg

Request: For Nc1ncc(-c2ccc3oc(=O)[nH]c3c2)c(N2CCC3(CC2)CNC(=O)O3)c1Cl , what is its reported microsomal CLint at 0.8 μM?
Response: 10 to 50 µL/min/mg

Request: For CN1c2ccc(-c3cnc(N)c(F)c3N3CCC4(CC3)CNC(=O)O4)cc2CS1(=O)=O , what is its reported microsomal CLint at 0.8 μM?
Response: < 10 µL/min/mg
